Measured values drawn from patent US20150246947A1 for this set.

The binders listed here are annotated with their Kd.
# experimental-target: T1, human Protein S (human, UniProt P07225 42-676)
# T1 construct: Called 'full length Protein S' / 'human full-length Protein S'; It was coated on plates (ELISA), Eu-labeled (LANCE) or immobilized on a chip (Biacore); also called PS; full length Protein S
# T1 sequence: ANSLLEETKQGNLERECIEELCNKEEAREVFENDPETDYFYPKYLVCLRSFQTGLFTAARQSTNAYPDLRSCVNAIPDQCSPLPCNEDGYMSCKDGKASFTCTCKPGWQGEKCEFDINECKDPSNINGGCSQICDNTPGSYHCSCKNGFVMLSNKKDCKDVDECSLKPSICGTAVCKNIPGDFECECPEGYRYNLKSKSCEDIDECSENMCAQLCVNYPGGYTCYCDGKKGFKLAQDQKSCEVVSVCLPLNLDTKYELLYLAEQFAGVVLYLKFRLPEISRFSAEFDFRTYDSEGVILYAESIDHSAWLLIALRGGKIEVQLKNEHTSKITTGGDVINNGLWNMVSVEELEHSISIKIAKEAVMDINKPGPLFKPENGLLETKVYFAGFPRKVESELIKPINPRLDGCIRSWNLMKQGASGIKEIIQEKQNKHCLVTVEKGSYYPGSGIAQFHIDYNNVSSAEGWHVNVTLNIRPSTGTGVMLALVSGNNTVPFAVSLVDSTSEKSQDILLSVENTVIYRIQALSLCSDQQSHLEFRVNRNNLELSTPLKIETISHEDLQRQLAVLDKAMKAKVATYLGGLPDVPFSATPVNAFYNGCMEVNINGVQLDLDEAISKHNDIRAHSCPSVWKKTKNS
# method-summary: Biacore (SPR), Protein S immobilized
Non-standard residues stand in square brackets, D forms with d. Cys(Me-400MA) = not defined here
Please give a number only; it is taken to be in nM.

Some binders with known Kd results, for comparison:
{"binder": "Ac-EYYVSAGWYDYNTDTYYEFEC-NH2 (not fully specified (residue 21), Tetramer of JBS3319 monomers with a four arm 10 kD PEG moiety) [JBS3321]", "endpoint-result": 0.02}
{"binder": "Ac-EYYVSAGWYDYNTDTYYEFE-NH2 [JBS3216]", "endpoint-result": 0.2}
{"binder": "Ac-TGLVSAGWYDYNFDHYREFTC-NH2 (not fully specified (residue 21); also: tetramer: four peptides on a 40 kD four-arm PEG core) [JBS3179]", "endpoint-result": 0.4}

Lab note: next binder to report on.
Which Kd is reported for this binder? Ac-EYIVTAGWYDYNKDIYYEFK[Cys(Me-400MA)]-NH2 (reading uncertain, JBS3206 monomer comprising a 40 kD PEG moiety) [JBS3322] 3.6
